Recorded values, source PubChem BioAssay AID2060887.

// values below are reported viability, T/C
system: 782815-120-R-J1-PDC complex spheroid viability; assay: Anticancer human tumor 782815-120-R-J1-PDC patient-derived colon adenocarcinoma cell line growth inhibition [RAS]; details: second compound 0.3 µM; first compound 0.316 µM; hits give low values;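 also: spheroids exposed to compounds for 7 days before reading; 100% = DMSO vehicle control viability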
Give the quantity in %, number only.

INSERT INTO measurements (molecule, measured_value) VALUES
  ('CC(Nc1ccc2c(c1)OCCn1cc(N3C(=O)OCC3C(F)F)nc1-2)C(N)=O (centres undefined) + CCn1c(-c2cc(N3CCN(C)CC3)cnc2C(C)OC)c2c3cc(ccc31)-c1csc(n1)CC(NC(=O)C1CC1C)C(=O)N1CCCC(N1)C(=O)OCC(C)(C)C2', 10.1),
  ('CC1(O)CCCC1n1c(=O)c(C(F)F)cc2cnc(NC3CCN(S(C)(=O)=O)CC3)nc21 (centres undefined) + CCn1c(-c2cc(N3CCN(C)CC3)cnc2C(C)OC)c2c3cc(ccc31)-c1csc(n1)CC(NC(=O)C1CC1C)C(=O)N1CCCC(N1)C(=O)OCC(C)(C)C2', 13.9),
  ('C=CC(=O)N1CCN(c2nc(OCC3CCCN3C)nc3c(F)c(-c4nc(N)cc(C)c4C(F)(F)F)c(Cl)cc23)C(C)C1 (centres undefined) + CCn1c(-c2cccnc2C(C)OC)c2c3cc(ccc31)N1CCOC(CC(NC(=O)C(C(C)C)N(C)C(=O)C3(F)CCN(C(=O)C#CC(C)(C)N(C)C)CC3)C(=O)N3CCCC(N3)C(=O)OCC(C)(C)C2)C1', 89.3),
  ('C=CC(=O)N1CCN(c2nc(OCC3CCCN3C)nc3c(F)c(-c4nc(N)cc(C)c4C(F)(F)F)c(Cl)cc23)C(C)C1 (centres undefined) + CCn1c(-c2cc(N3CCN(C)CC3)cnc2C(C)OC)c2c3cc(ccc31)-c1csc(n1)CC(NC(=O)C1CC1C)C(=O)N1CCCC(N1)C(=O)OCC(C)(C)C2', 16.2),
  ('CC(=O)OC12COC1CC(O)C1(C)C(=O)C(O)C3=C(C)C(OC(=O)C(O)C(NC(=O)OC(C)(C)C)c4ccccc4)CC(O)(C(OC(=O)c4ccccc4)C21)C3(C)C (centres undefined) + CCn1c(-c2cccnc2C(C)OC)c2c3cc(ccc31)N1CCOC(CC(NC(=O)C(C(C)C)N(C)C(=O)C3(F)CCN(C(=O)C#CC(C)(C)N(C)C)CC3)C(=O)N3CCCC(N3)C(=O)OCC(C)(C)C2)C1', 23.3),
  ('O=C(c1ccc(F)c(F)c1Nc1ccc(I)cc1F)N1CC(O)([C@@H]2CCCCN2)C1 + CCn1c(-c2cc(N3CCN(C)CC3)cnc2C(C)OC)c2c3cc(ccc31)-c1csc(n1)CC(NC(=O)C1CC1C)C(=O)N1CCCC(N1)C(=O)OCC(C)(C)C2', 0.63),
  ('NC1c2ccccc2OC12CCN(c1cnc3c(N4CCCc5ncccc54)n[nH]c3n1)CC2 (centres undefined) + CCn1c(-c2cccnc2C(C)OC)c2c3cc(ccc31)N1CCOC(CC(NC(=O)C(C(C)C)N(C)C(=O)C3(F)CCN(C(=O)C#CC(C)(C)N(C)C)CC3)C(=O)N3CCCC(N3)C(=O)OCC(C)(C)C2)C1', 85.8),
  ('O=C(c1ccc(F)c(F)c1Nc1ccc(I)cc1F)N1CC(O)([C@@H]2CCCCN2)C1 + CCn1c(-c2cccnc2C(C)OC)c2c3cc(ccc31)N1CCOC(CC(NC(=O)C(C(C)C)N(C)C(=O)C3(F)CCN(C(=O)C#CC(C)(C)N(C)C)CC3)C(=O)N3CCCC(N3)C(=O)OCC(C)(C)C2)C1', 14.2);

Need viability, T/C of Nc1ccn(C2OC(CO)C(O)C2(F)F)c(=O)n1 (centres undefined) + CCn1c(-c2cccnc2C(C)OC)c2c3cc(ccc31)N1CCOC(CC(NC(=O)C(C(C)C)N(C)C(=O)C3(F)CCN(C(=O)C#CC(C)(C)N(C)C)CC3)C(=O)N3CCCC(N3)C(=O)OCC(C)(C)C2)C1 , thanks.
24.2

Same question for CC(Nc1ccc2c(c1)OCCn1cc(N3C(=O)OCC3C(F)F)nc1-2)C(N)=O (centres undefined) + CCn1c(-c2cccnc2C(C)OC)c2c3cc(ccc31)N1CCOC(CC(NC(=O)C(C(C)C)N(C)C(=O)C3(F)CCN(C(=O)C#CC(C)(C)N(C)C)CC3)C(=O)N3CCCC(N3)C(=O)OCC(C)(C)C2)C1 please.
90

Same question for CCN1CCN(Cc2ccc(Nc3ncc(F)c(-c4cc(F)c5nc(C)n(C(C)C)c5c4)n3)nc2)CC1 + CCn1c(-c2cc(N3CCN(C)CC3)cnc2C(C)OC)c2c3cc(ccc31)-c1csc(n1)CC(NC(=O)C1CC1C)C(=O)N1CCCC(N1)C(=O)OCC(C)(C)C2 please.
13.2

Same question for CCN1CCN(Cc2ccc(Nc3ncc(F)c(-c4cc(F)c5nc(C)n(C(C)C)c5c4)n3)nc2)CC1 + CCn1c(-c2cccnc2C(C)OC)c2c3cc(ccc31)N1CCOC(CC(NC(=O)C(C(C)C)N(C)C(=O)C3(F)CCN(C(=O)C#CC(C)(C)N(C)C)CC3)C(=O)N3CCCC(N3)C(=O)OCC(C)(C)C2)C1 please.
122

Same question for Cc1nc(N2CCC3(CC2)COC(C)C3N)c(CO)nc1Sc1ccnc(N)c1Cl (centres undefined) + CCn1c(-c2cc(N3CCN(C)CC3)cnc2C(C)OC)c2c3cc(ccc31)-c1csc(n1)CC(NC(=O)C1CC1C)C(=O)N1CCCC(N1)C(=O)OCC(C)(C)C2 please.
15.9

Same question for Nc1ccn(C2OC(CO)C(O)C2(F)F)c(=O)n1 (centres undefined) + CCn1c(-c2cc(N3CCN(C)CC3)cnc2C(C)OC)c2c3cc(ccc31)-c1csc(n1)CC(NC(=O)C1CC1C)C(=O)N1CCCC(N1)C(=O)OCC(C)(C)C2 please.
12.6
